B1: CPEB3 Ribozyme (parent)
chain: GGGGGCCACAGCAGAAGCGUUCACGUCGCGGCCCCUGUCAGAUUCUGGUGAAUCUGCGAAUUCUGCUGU

Variants of: B1
Assay: self-cleavage, relative activity (ratio to wild type); higher = more cleavage; co-transcriptional

var: C12U C27U
self-cleavage: 0.297
//
var: A13C G50C
self-cleavage: 0.787
//
var: A15G U69G
self-cleavage: 1.05
//
var: G1C U46C
self-cleavage: 0.248
//
var: C12A C63G
self-cleavage: 0.354
//
var: U36G C66G
self-cleavage: 0.167
//
var: G2U G31C
self-cleavage: 0.061
//
var: G19U U43A
self-cleavage: 0.202
//
var: G25A C33A
self-cleavage: 0.206
//
var: G25U C57A
self-cleavage: 0.137
//
var: U36C A60G
self-cleavage: 0.636
//
var: G11C U20A
self-cleavage: 0.115
//
var: C7U C39U
self-cleavage: 0.803
//
var: C57A G68U
self-cleavage: 0.394
//
var: G2A G31A
self-cleavage: 0.0613
//
var: G37U G68C
self-cleavage: 0.42
//
var: G2U U67C
self-cleavage: 0.107
//
var: C45U A52G
self-cleavage: 1.01
//
var: G31C U62G
self-cleavage: 0.228
//
var: C34A C39G
self-cleavage: 0.538
//
var: G31A G68C
self-cleavage: 1.02
//
var: C34A G68U
self-cleavage: 0.956
